Recorded values, source PubChem BioAssay AID540256.

- TEST_DETAILS: qHTS for Inhibitors of binding or entry into cells for Lassa Virus; also: nearly all actives have a fitted effect of over 50% in size
- ASSAY_SETUP: Lassa virus pseudotype entry inhibition, cell reporter; series mostly up to 37.9 µM
About 3,700 (1.2%) of roughly 300,000 compounds were called active. About 20% were inconclusive and are not listed. Calls follow the shape of the full dose curve; tested in HEK293 cells. The sample as a whole holds a higher share of actives than the screen did.
Mark one answer only. Choices: active, inactive

# input Write down the call the test reported for this compound. Item: Cc1ccc(NC2CCCN(C(=O)CCc3cn[nH]c3)C2)cc1C (configuration not stated)
# output inactive

# input Kindly provide the recorded test outcome for the following compound: `COc1ccc2nc(/N=C(\N)NC(=O)Nc3ccccc3)nc(C)c2c1`
# output inactive

# input Hello, I am checking results. What call was entered for `CS(=O)(=O)c1ccc(-c2nnc(NC(=O)c3ccc4c(c3)OCCO4)o2)cc1` ?
# output inactive

# input Which result was noted for this compound in the test: `O=C(c1ccc(Cl)c(S(=O)(=O)N2CCCCC2)c1)N1CCCCCC1`
# output inactive

# input Could you kindly confirm the outcome this assay logged for `O=C(Nc1nc2ccccc2s1)c1ccc2c(c1)OCO2` ?
# output active

# input Query: recorded result category for `COc1ccc(C)cc1Nc1nc(C)nc2c1oc1ccccc12` in this test
# output inactive

# input GET /call?item= `CCCCN1Cc2c(nc3cc(-c4ccccc4)[nH]n3c2=O)C1=O` returns the recorded outcome of this test.
# output inactive

# input Record lookup: outcome of this test for `COCCn1cnnc1SCC(=O)Nc1cccc(S(=O)(=O)N2CCCCC2)c1` ?
# output inactive

# input For this compound, state the assay outcome: `O=C(c1cc(C(=O)N2CCN(c3ccc(F)cc3)CC2)cc([N+](=O)[O-])c1)N1CCN(c2ccc(F)cc2)CC1`
# output inactive

# input Look up the recorded call for `O=C(COc1ccccc1Cl)Nc1ccc2nc(SCC(=O)N3CCCC3)sc2c1` in this test.
# output inactive

# input Per the assay record, what outcome was assigned to CC1CCCN(CC(=O)Nc2cc(Cl)ccc2Oc2ccccc2)C1 (configuration not stated) ?
# output inactive

# input // outcome(item) with item = `O=c1c2c(nc3nc[nH]n13)CCC2`
# output inactive

###

- TEST_DETAILS: qHTS for Inhibitors of binding or entry into cells for Lassa Virus; also: nearly all actives have a fitted effect of over 50% in size; also: potency is read from the fitted curve at half-maximal effect
- ASSAY_SETUP: Lassa virus pseudotype entry inhibition, cell reporter; series mostly up to 37.9 µM
Out of some 300,000 compounds screened, about 3,700 (1.2%) were called active. Roughly 20% stayed inconclusive and do not appear here. The list comes from a sample in which actives are over-represented; it also holds close analogues and randomly drawn compounds.
EXPERIMENTAL_ENDPOINT: Potency

The examples below pair each entry with its known result.
1) O=[N+]([O-])c1ccc(C=Nc2ccc(Cl)cc2Cl)s1: 16.4 µM (active)
2) Cn1nnc2cc(C(=O)NCCC3=CCCCC3)ccc21: 8.91 µM (active)
3) CC(Sc1nncn1C)C(=O)NCCC1=CCCCC1 (stereo unspecified): inactive
4) NS(=O)(=O)c1ccc(Nc2nc(-c3ccccc3)cs2)cc1: inactive

# input If you can, please state the reported Potency value of `COc1ccc(Nc2nc(-c3ccccc3)cs2)cc1` .
# output 20.6 µM (active)

# input Endpoint output: Potency of `CNN/C(N=Cc1ccc([N+](=O)[O-])s1)=N\S(=O)(=O)c1cc(C)c(Cl)cc1SCc1ccccc1` . Value?
# output inactive

# input # query: Potency of entry `Cc1[nH]c2ccc(S(N)(=O)=O)cc2c1C`
# output inactive

# input Give the measured Potency of `COc1ccccc1N(C)S(=O)(=O)c1ccc(Cl)c(C(=O)Nc2ccncc2)c1` .
# output inactive

# input // query Potency value for entry `Cc1[nH]n(C)c(=O)c1N=Nc1ccc(S(C)(=O)=O)cc1`
# output inactive

# input What value of Potency has been recorded for this entry: `Cc1ccc(-n2cnc3cc(C(=O)NCCC4=CCCCC4)ccc32)cc1Cl`
# output inactive

# input Reported Potency, compound `NC(N)=N/N=C/c1ccc(Cl)c([N+](=O)[O-])c1` : ____
# output inactive

###

- TEST_DETAILS: qHTS for Inhibitors of binding or entry into cells for Lassa Virus; also: nearly all actives have a fitted effect of over 50% in size
- ASSAY_SETUP: Lassa virus pseudotype entry inhibition, cell reporter; series mostly up to 37.9 µM
The campaign covered roughly 300,000 compounds. About 3,700 (1.2%) were called active. Not shown: some 20% with an inconclusive outcome. The call rests on the fitted dose curve; tested in HEK293 cells. The list comes from a sample in which actives are over-represented; it also holds close analogues and randomly drawn compounds.
Just give me one of these, please: 1 (yes) for active, 0 (no) for inactive

Illustrative cases are given below, each with its answer.
1. Cc1ccc(OCCSc2nc3ccc(NC(=O)COc4ccc(C)cc4)cc3s2)cc1: 0 (no)
2. COc1ccc(/C=C(/NC(=O)c2ccco2)C(=O)Nc2ccc(C(C)=O)cc2)cc1: 0 (no)
3. O=C(CSc1nc2ccccc2c(=O)n1CCCO)N1CCc2ccccc21: 0 (no)
4. CCCn1c(C)cc(-c2csc(NC(=O)CCc3nc4ccccc4c(=O)[nH]3)n2)c1C: 0 (no)
5. O=C(COc1cccnc1[N+](=O)[O-])Nc1ccc(Cl)cc1F: 0 (no)

# input Hi, sorry to bother you, what did the test record for `O=C(NCCc1ccc(Cl)cc1)c1ccc2c(c1)N(Cc1ccc(F)cc1)C(=O)CS2` ?
# output 0 (no)

# input Hello, I am checking results. What call was entered for `O=C1CCN(C(=S)NCCc2ccccc2)CC1` ?
# output 0 (no)

# input Status in this test for `C/C(=N\NC(=O)Cc1ccc(F)cc1)c1ccc(F)cc1` ?
# output 0 (no)

# input Fill in: this test's call for `COc1ccc(/C=C(\NC(=O)c2ccc(OCC(C)C)cc2)C(=O)OCc2ccco2)cc1` is ___
# output 1 (yes)

# input Query: recorded result category for `O=C(CCNC(=O)c1ccc(Br)cc1)Nc1cccc(S(=O)(=O)N2CCCCC2)c1` in this test
# output 0 (no)

# input What classification did `Cn1c(SCC(=O)N2CCCc3ccccc32)nc2ccccc2c1=O` end up with in this test?
# output 1 (yes)

# input Record lookup: outcome of this test for `C/C(=N\NC(=O)Cc1ccc(Cl)cc1)c1ccccn1` ?
# output 1 (yes)

###

- TEST_DETAILS: qHTS for Inhibitors of binding or entry into cells for Lassa Virus; also: nearly all actives have a fitted effect of over 50% in size
- ASSAY_SETUP: Lassa virus pseudotype entry inhibition, cell reporter; series mostly up to 37.9 µM
Among all 300,000 compounds or so, about 3,700 (1.2%) were called active. About 20% were inconclusive and are not listed. The call rests on the fitted dose curve; tested in HEK293 cells. This is one part of a sample in which actives are shown more often than they occur.
// allowed return values: active, inactive

Below, 3 compounds whose answers are already recorded.
1. c1c2c(cc3sc(N4CCCCC4)nc13)OCCO2: active
2. COC(=O)CC(CC(=O)OC)n1cccc1: inactive
3. CC(C)OCCCNC(=O)CN1C(=O)/C(=C/c2ccccc2F)Oc2ccccc21: inactive

# input What is the recorded call for this compound in the test? Cc1cc(NC(=O)CCC(=O)N(CC(=O)NCC2CCCO2)c2ccccc2C)no1 (stereo not drawn)
# output inactive

# input Please state the recorded outcome for this compound: `CCOC(=O)CN(Cc1ccc(OC)c(OC)c1)S(=O)(=O)c1ccc(OC)cc1`
# output inactive

###

- TEST_DETAILS: qHTS for Inhibitors of binding or entry into cells for Lassa Virus; also: nearly all actives have a fitted effect of over 50% in size
- ASSAY_SETUP: Lassa virus pseudotype entry inhibition, cell reporter; series mostly up to 37.9 µM
The campaign covered roughly 300,000 compounds. About 3,700 (1.2%) were called active. Another 20% or so got no clear call; they are omitted. Calls come from the whole dose curve; tested in HEK293 cells. Many of the other results were omitted from the sample, so actives are more common in it than they were.
Choose the fitting class; nothing outside active, inactive is accepted.

1. O=C(CN1CCC(NC(=O)Nc2ccccc2)CC1)Nc1cccc([N+](=O)[O-])c1: inactive
2. COc1ccc(CCNS(=O)(=O)c2cc(-c3cc(C)no3)ccc2C)cc1OC: inactive
3. NC(CSC1(c2ccccc2)c2ccccc2-c2ccccc21)C(=O)O (stereo unspecified): inactive
4. Cc1ccc(Nc2nnc(SCc3ccccc3)s2)cc1: inactive
5. COc1cc(C(=O)Nn2c(CC(C)C)nc3ccccc3c2=O)cc(OC)c1OC: inactive

Consider now this further molecule.
# input Returns: the outcome recorded for O=C1NC(=O)C(CCc2ccccc2)(c2ccccc2)N1 (stereo unspecified) in this assay.
# output inactive

###

- TEST_DETAILS: qHTS for Inhibitors of binding or entry into cells for Lassa Virus; also: nearly all actives have a fitted effect of over 50% in size
- ASSAY_SETUP: Lassa virus pseudotype entry inhibition, cell reporter; series mostly up to 37.9 µM
The campaign covered roughly 300,000 compounds. About 3,700 (1.2%) were called active. About 20% were inconclusive and are not listed. Calls come from the whole dose curve; tested in HEK293 cells. Only a selection was taken, and actives are over-represented in it overall.
Answer with one of the outcomes active, inactive

Use these answered entries as a reference point.
1. CC/C(=C\c1ccc(Cl)cc1)c1ccncc1: inactive
2. O=C(Nc1ccn(Cc2ccccc2F)n1)c1ccc(COc2ccc(Cl)cc2Cl)o1: active

# input Record request — test call for `CCCN(CCC)c1nc2c(C)cccn2c(=O)c1/C=C1/SC(=S)N(Cc2ccco2)C1=O`
# output inactive

# input Which outcome did this test record for the compound COC(=O)CN(C(=S)Nc1ccc(Cl)cc1)C1CC(=O)N(c2ccc(OC)cc2)C1=O (stereo not drawn) ?
# output inactive

# input Which outcome was entered for the compound COc1ccccc1C(=O)NC(CCSC)C(=O)N1CCN(C/C=C/c2ccccc2)CC1 (stereo not drawn) in this test?
# output inactive
